- assayNotes: Elimination half life in rat at 3 mg/kg, iv by LC/MS/MS analysis
- Format: ADME, organism-based
- Parameters: dose 3 mg/kg, route intravenous
- assaySetup: in vivo, read-out: beta t1/2 (converted)
measurementName: half-life (min)
// return numeric value only (unit: min, not printed)

input: For the compound shown here, "Cl.O=c1[nH]nc2c(NCCCc3ccncc3)cc(Cl)cn12" , give the reported half-life.
output: 24

---

- assayNotes: Drug uptake in ICR mouse brain at 30 mg/kg, iv measured at 0.75 hrs by LC/MS/MS analysis
- Format: ADME, organism-based
- Design: dose 30 mg/kg, route intravenous
- assaySetup: read-out: Drug uptake
measurementName: concentration at 0.75 h (ng/g)
// return numeric value only (unit: ng/g, not printed)

input: For the compound shown here, "Cl.O=c1[nH]nc2c(NCCCc3ccncc3)cc(Cl)cn12" , give the reported concentration at 0.75 h.
output: 107
